# Tested on: HEK-293T
# assay-remarks: Incucyte cell viability with HEK293T; note: filed as whole numbers so only -1 and 0 and 1 occur
# Assay type: toxicity, cell-based
# experimental-context: human, 6 h, 10 µM, compound concentration 10 uM, replicate number 2, timepoint 6 hours
experimental-endpoint: Growth Rate
// keep it numeric: no unit symbol after the value

Previously resolved entries follow.
>>> experimental_result("CN(CCOc1ccc(C[C@H](Nc2ccccc2C(=O)c2ccccc2)C(=O)O)cc1)c1ccccn1.O")
1
>>> experimental_result("N#CC1(c2ccccn2)CCN(Cc2cc(C(=O)N3CCCC3)c(=O)n3ccccc23)CC1 [MSD-M1PAM-NC]")
0
>>> experimental_result("Cc1cc(C)c(N)c(C#Cc2cccc(F)c2)n1.Cl")
1
>>> experimental_result("CN(C(=O)Cc1ccc(Cl)c(Cl)c1)C(CN1CCCC1)c1cccc(OCC(=O)O)c1.Cl (stereo not given)")
0

Proceed to the following item.
Quick note, Growth Rate for CO[C@@H]1COCC[C@@H]1N[C@@H]1CC[C@@](C(=O)N2CCc3ncc(C(F)(F)F)cc3C2)(C(C)C)C1 [MK-0812] landed at 0

* * *

A collection of molecules and their measured Growth Rate
# System: HEK-293T
# assay-remarks: Incucyte cell viability with HEK293T; note: filed as whole numbers so only -1 and 0 and 1 occur
# Assay type: toxicity, cell-based
# experimental-context: human, 0 h, 10 µM, compound concentration 10 uM, replicate number 1, timepoint 0 hours
// keep it numeric: no unit symbol after the value

Previously resolved entries follow.
>>> experimental_result("O=C(O)CC1CCC2(CC1)CCN(c1cc(OC(F)(F)F)ccc1Cl)CC2")
0
>>> experimental_result("CCN(CC)CCCCC1CCN(CC(=O)N2c3ccccc3C(=O)Nc3cccnc32)CC1")
0
>>> experimental_result("CC1=C(C#N)C(c2ccc3c(c2)c(NC(=O)c2ccccc2C)nn3C)C(C#N)=C(C)N1 [BAY-974]")
0
>>> experimental_result("CCCCc1nc2ccc(NC(=O)NC3CCCCC3)cc2n1Cc1ccc(-c2ccccc2C(=O)O)cc1")
1

Quick note, Growth Rate for CO[C@@H]1COCC[C@@H]1N[C@@H]1CC[C@@](C(=O)N2CCc3ncc(C(F)(F)F)cc3C2)(C(C)C)C1 [MK-0812] landed at 0

Quick note, Growth Rate for `Cc1nc(C#Cc2ccnc(Cl)c2)c(C)n1-c1ccc(OC(F)(F)F)cc1` landed at 0

* * *

A collection of compounds and their measured Population Mitotic Cells (%)
# System: U2OS
# assay-remarks: Multiplex assay against U2OS
# Assay type: toxicity, cell-based
# experimental-context: human, 12 h, 10 µM, compound concentration 10 uM, replicate 2
The figure you give is taken to be in %; do not add the unit.

>>> experimental_result("CCC(=O)O[C@]1(C(=O)SCF)[C@H](C)C[C@H]2[C@@H]3C[C@H](F)C4=CC(=O)C=C[C@]4(C)[C@@]3(F)[C@@H](O)C[C@@]21C [FLUTICASONE PROPIONATE]")
71
>>> experimental_result("CC(=O)c1cc(-c2cc(C(=O)NC3CC3)ccc2C)c2ncccn12")
40
>>> experimental_result("Nc1nc2c(c(N3CCNCC3)n1)CCC1=C2[C@@H]2CCCC[C@@H]2O1")
72

Proceed to the following item.
Quick note, Population Mitotic Cells (%) for CCn1c(-c2nonc2N)nc2cnc(Oc3cccc(NC(=O)c4ccc(OCCN5CCOCC5)cc4)c3)cc21 [GSK-269962A] landed at 68

* * *

# System: HEK-293T
# assay-remarks: Multiplex assay against HEK293T;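 note: share of the cells with healthy nuclei that show this phenotype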
# Assay type: toxicity, cell-based
# experimental-context: human, 48 h, 10 µM, compound concentration 10 uM, replicate 2
experimental-endpoint: Population Tubulin-Different-Phenotype (%)

Quick note, Population Tubulin-Different-Phenotype (%) for `Cl.Cl.Nc1ncnc2c1c(-c1cccc(OCc3ccccc3)c1)cn2[C@H]1C[C@@H](CN2CCC2)C1` landed at 88%

* * *

# Test system: HEK-293T
# assay-remarks: Incucyte cell viability with HEK293T; note: filed as whole numbers so only -1 and 0 and 1 occur
# Assay type: toxicity, cell-based
# experimental-context: human, 24 h, 10 µM, compound concentration 10 uM, replicate number 1, timepoint 24 hours
experimental-endpoint: Growth Rate
// keep it numeric: no unit symbol after the value

Previously resolved entries follow.
>>> experimental_result("CC(C)N1CCC(C)(C)c2cc(C#Cc3ccc(C(=O)O)cc3)ccc21")
0
>>> experimental_result("CCCOc1ccc([C@@H]2[C@@H](C(=O)O)[C@H](c3ccc4c(c3)OCO4)CN2CC(=O)Nc2c(CC)cccc2CC)cc1")
1
>>> experimental_result("CCNC(=O)c1cc2c(N3CCOC[C@@H]3C)ccnc2[nH]1")
0

Quick note, Growth Rate for `C=CCN1C[C@H](C)N([C@H](c2ccc(C(=O)N(CC)CC)cc2)c2cccc(O)c2)C[C@H]1C` landed at 0

Quick note, Growth Rate for `C[C@@H]1CCc2ncc(F)cc2[C@H]2CCCN2c2ccn3ncc(c3n2)C(=O)N1` landed at 0

Quick note, Growth Rate for CCn1c(-c2nonc2N)nc2cnc(Oc3cccc(NC(=O)c4ccc(OCCN5CCOCC5)cc4)c3)cc21 [GSK-269962A] landed at 0

* * *

# Test system: U2OS
# assay-remarks: Multiplex assay against U2OS
# Format: toxicity, cell-based
# experimental-context: human, 12 h, 1 µM, compound concentration 1 uM, replicate 2
Assign rule met to entries whose Population Apoptotic (%) meets or exceeds 30%; assign rule not met to the rest.

Answered cases to consult:
>>> class_assignment("CC(C)(C)c1cnc(CSc2cnc(NC(=O)C3CCNCC3)s2)o1")
"rule not met"
>>> class_assignment("CC(=O)c1cc(-c2cc(C(=O)NC3CC3)ccc2C)c2ncccn12")
"rule met"
>>> class_assignment("CCOc1cc2ncc(C#N)c(Nc3ccc(OCc4cccc(F)c4)c(Cl)c3)c2cc1NC(=O)/C=C/CN(C)C")
"rule not met"
>>> class_assignment("CCc1cc2c(cc1CC)CC(NC[C@H](O)c1ccc(O)c3[nH]c(=O)ccc13)C2")
"rule met"
>>> class_assignment("CCCn1c(=O)c2[nH]c(C34CC5CC(CC3C5)C4)nc2n(CCC)c1=O")
"rule met"
>>> class_assignment("Cc1cc2c(cc1N1C(=O)c3cccc4c(CCCO)ccc(c34)C1=O)n(C)c(=O)n2C")
"rule not met"

// switching to the query compound
Ask: Confirm if Population Apoptotic (%) reported for the compound CCn1c(-c2nonc2N)nc2cnc(Oc3cccc(NC(=O)c4ccc(OCCN5CCOCC5)cc4)c3)cc21 [GSK-269962A] is 30% or above.
Reply: rule not met

* * *

A collection of compounds and their measured Total Cell Count
# System: U2OS
# assay-remarks: Multiplex assay against U2OS
# Assay type: toxicity, cell-based
# experimental-context: human, 12 h, 1 µM, compound concentration 1 uM, replicate 2
// keep it numeric: no unit symbol after the value

Form field Total Cell Count for item `CN(C)CCOc1ccc(-c2nc(-c3ccncc3)c(-c3ccc4c(c3)CC/C4=N\O)[nH]2)cc1` on U2OS: 155

Form field Total Cell Count for item `Cc1cc2c(cc1N1C(=O)c3cccc4c(CCCO)ccc(c34)C1=O)n(C)c(=O)n2C` on U2OS: 104

Form field Total Cell Count for item `CNc1oc(-c2cccc3ccccc23)nc1C#N` on U2OS: 100

Form field Total Cell Count for item `COc1cc2c(NC3CCN(C(C)C)CC3)nc(N3CCC(F)(F)CC3)nc2cc1OCCCN1CCCC1` on U2OS: 105

Form field Total Cell Count for item `CC(C)N1CCC(C)(C)c2cc(C#Cc3ccc(C(=O)O)cc3)ccc21` on U2OS: 69

Form field Total Cell Count for item `c1ccc2oc(-c3csc(C4CCN(Cc5nc6ncccc6[nH]5)CC4)n3)cc2c1` on U2OS: 141

Form field Total Cell Count for item `CCc1cc2c(cc1CC)CC(NC[C@H](O)c1ccc(O)c3[nH]c(=O)ccc13)C2` on U2OS: 71

Form field Total Cell Count for item `Cc1cn(-c2cc(NC(=O)c3ccc4c(c3)CN(c3cncnc3)C[C@@H]4C)cc(C(F)(F)F)c2)cn1` on U2OS: 116

Form field Total Cell Count for item `COc1ccc(NS(=O)(=O)c2sc3ccc(Cl)cc3c2C)cc1N1CCNCC1.Cl` on U2OS: 69

Form field Total Cell Count for item `CC(C)(C)c1cnc(CSc2cnc(NC(=O)C3CCNCC3)s2)o1` on U2OS: 143

Form field Total Cell Count for item `Cl.Cl.Nc1ncnc2c1c(-c1cccc(OCc3ccccc3)c1)cn2[C@H]1C[C@@H](CN2CCC2)C1` on U2OS: 55

* * *

A collection of molecules and their measured Population Normal (%)
# Tested on: Fibroblast
# assay-remarks: Multiplex assay against human fibroblast
# Assay type: toxicity, cell-based
# experimental-context: 48 h, 1 µM, compound concentration 1 uM, replicate 1
The figure you give is taken to be in %; do not add the unit.

Previously resolved entries follow.
>>> experimental_result("Nc1nc2c(c(N3CCNCC3)n1)CCC1=C2[C@@H]2CCCC[C@@H]2O1")
65
>>> experimental_result("COc1ccc(NS(=O)(=O)c2sc3ccc(Cl)cc3c2C)cc1N1CCNCC1.Cl")
79
>>> experimental_result("Cc1nc(Cc2cccc(C(F)(F)F)c2)sc1-c1ccc(C(N)=O)nc1 [TP-024n]")
80
>>> experimental_result("O=C(O)c1ccc2cc(-c3ccc(O)c(C45CC6CC(CC(C6)C4)C5)c3)ccc2c1")
56

Proceed to the following item.
Quick note, Population Normal (%) for `CNc1oc(-c2cccc3ccccc23)nc1C#N` landed at 22
